Entry source: patent US20240336909

biological target: AxCT mask27 EGFR EH104 L040 version 1
Listed below: Percent cleavage values for each entry.
Field format: number, assumed %, no unit text.

# Protein, Quantitative Result
records = [
    ("MMP-7 (protein) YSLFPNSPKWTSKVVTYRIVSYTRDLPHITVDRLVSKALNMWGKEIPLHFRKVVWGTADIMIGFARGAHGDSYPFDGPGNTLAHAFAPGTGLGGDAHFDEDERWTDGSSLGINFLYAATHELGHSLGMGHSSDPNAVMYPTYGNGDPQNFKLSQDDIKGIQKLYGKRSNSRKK", 0),
]

Report Percent cleavage for Cathepsin G (protein) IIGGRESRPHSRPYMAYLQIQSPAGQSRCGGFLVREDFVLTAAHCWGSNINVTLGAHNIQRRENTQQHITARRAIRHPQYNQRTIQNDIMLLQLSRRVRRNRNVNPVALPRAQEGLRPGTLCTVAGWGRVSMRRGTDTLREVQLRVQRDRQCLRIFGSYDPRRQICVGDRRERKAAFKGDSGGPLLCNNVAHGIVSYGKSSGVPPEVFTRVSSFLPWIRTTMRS please.
0

Quick one: Percent cleavage for MMP-12 (protein) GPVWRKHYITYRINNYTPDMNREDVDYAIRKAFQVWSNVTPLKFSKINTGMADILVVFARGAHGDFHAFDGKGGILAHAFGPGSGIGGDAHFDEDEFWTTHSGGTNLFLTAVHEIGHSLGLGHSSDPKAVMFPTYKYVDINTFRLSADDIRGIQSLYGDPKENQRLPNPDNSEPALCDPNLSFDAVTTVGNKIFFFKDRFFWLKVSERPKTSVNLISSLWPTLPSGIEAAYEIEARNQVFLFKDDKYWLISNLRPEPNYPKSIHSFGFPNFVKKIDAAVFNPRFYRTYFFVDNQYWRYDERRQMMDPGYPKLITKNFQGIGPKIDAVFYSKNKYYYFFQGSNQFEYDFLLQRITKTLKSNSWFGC ?
13
